- Test system: MS2 coat protein
- method.summary: apparent KD of MS2 coat protein; designed switch direction (-1 OFF switch, 1 ON switch): 1; higher = weaker reporter binding
- assay.context: input ligand: none

- ordered.residues: "GCUCGUAUCACGACCGACAUGAGGAUCACCCAUGUAUGUUGGUAGGAUAUCUAUAUUAAGGAUAUAGAGAAGGGCCGAACGAGC [SameState NG3 #14] (Eterna round: R96, puzzle: Same State NG 3)"
  assayed.system: "MS2 coat protein"
  apparent KD of MS2 coat protein: "30.1 nM"
- ordered.residues: "CUCACAUGGGUAGGAUAUCUAGGAUAUGGGAAAGACUAAGUCUGUAGGUCACCUAACCCAGAUGGAGAGAAGGACCCAACACUC [pwkr ssNG2 2FMN + F9.37] (Eterna round: R96, puzzle: Same State NG 2)"
  assayed.system: "MS2 coat protein"
  apparent KD of MS2 coat protein: "9.82 nM"
- ordered.residues: "GCGAAAGCCGUAGGAUAUGUAGGAUAUGGCGAGAGCUAAGCUUGGAAGUCACUUCAGCCAGAAGGACAGAAGGACGCCGAAAGG [pwkr ssNG2 2FMN + F9.15] (Eterna round: R96, puzzle: Same State NG 2)"
  assayed.system: "MS2 coat protein"
  apparent KD of MS2 coat protein: "46.2 nM"
- ordered.residues: "CUUUUUAAUGCAGGAUAUGAUCAACAUGAGGAUCACCCAUGUGGCGUUGUGAGUAAGGAGAGUGAUCAGAAGGGCAUCUCCUCA [SS-NG2-LRO07] (Eterna round: R96, puzzle: Same State NG 2)"
  assayed.system: "MS2 coat protein"
  apparent KD of MS2 coat protein: "45.8 nM"
- ordered.residues: "GUAGCAUACCGAGGAUAUUCAUAUUAAAUACAUGAGGAUCACCCAUGUUAGGCCAAAAGGCCUUGGGAGAAGGCGGAAUGCUAC [Xeonanis - 20 Mod2] (Eterna round: R96, puzzle: Same State NG 2)"
  assayed.system: "MS2 coat protein"
  apparent KD of MS2 coat protein: "63.5 nM"
- ordered.residues: "GCUGCAUGGGCAGGAUAUGGGUCCAAAGCGCAAGUGCGCUUUGGUACAUGAGGAUCACCCAUGUCCCAGAAGGGCCCAAGCGGC [Inorgeesbi] (Eterna round: R96, puzzle: Same State NG 2)"
  assayed.system: "MS2 coat protein"
  apparent KD of MS2 coat protein: "145 nM"
- ordered.residues: "UAAGGACAUGAGGAUCACCCAUGUGCUUCAUAUGGAGAAUCUCAGGAUAUCCUGAGGAUCACCCAGGAGAAGGGAGAUCCGAGG (Eterna round: R96, puzzle: Same State NG 3)"
  assayed.system: "MS2 coat protein"
  apparent KD of MS2 coat protein: "225 nM"
- ordered.residues: "UACUUCAUGUAAGGAUAUGCAGCCGUUUCGGCUGCAGAAGGUACUAUAAUACAUGAGGAUCACCCAUGUCUCUCGCAUUGCGAG [JL SSNG1 1.50] (Eterna round: R96, puzzle: Same State NG 1)"
  assayed.system: "MS2 coat protein"
  apparent KD of MS2 coat protein: "158 nM"
- ordered.residues: "UUGCUCGUGUGAGGAUAUGCCGCCGUUUCGGCUGCAGAAGGUACUCUUAUACAUGAGGAUCACCCAUGUCUCUGUUGUUUCGUG [salish99_SSNG1_r04_936] (Eterna round: R96, puzzle: Same State NG 1)"
  assayed.system: "MS2 coat protein"
  apparent KD of MS2 coat protein: "98.2 nM"
- ordered.residues: "UUGAAUAAUUAAGGAUAUCGAGUCAAGAUGUUAAACAUGAGGAUCACCCAUGUGGGUUGCGGUAUCGAGAAGGUAAAUAAGAAG [Mat - Same State NG 2 - JL mod - D55] (Eterna round: R96, puzzle: Same State NG 2)"
  assayed.system: "MS2 coat protein"
  apparent KD of MS2 coat protein: "42.5 nM"
- ordered.residues: "AUUAAUAAUCUAGGAUAUCACGUCGAAUAGACGUGAGAAGGAGAUCAUAACAUGAGGAUCACCCAUGUAUUACAUGAAGUUAAU [SSNG1/7-B1] (Eterna round: R96, puzzle: Same State NG 1)"
  assayed.system: "MS2 coat protein"
  apparent KD of MS2 coat protein: "34.8 nM"
- ordered.residues: "UUAACAUGAGGAUCACCCAUGUAUACGUAGUUUGCAUUUUGACAGGAUAUUGUUUAUCUAUAUAGCAAGAAGGGUCGUUAGUCU [JR_SSNG3_Sub009] (Eterna round: R96, puzzle: Same State NG 3)"
  assayed.system: "MS2 coat protein"
  apparent KD of MS2 coat protein: "41.9 nM"
- ordered.residues: "CCGAUUUAUGGAGGAUAUGGAGCCUUAUUGGCUCCAGAAGGUCAAUAAACAUGAGGAUCACCCAUGUCGGCGGUCAAUAGACCG [Eli NG1ss - 71] (Eterna round: R96, puzzle: Same State NG 1)"
  assayed.system: "MS2 coat protein"
  apparent KD of MS2 coat protein: "180 nM"
- ordered.residues: "GUAGCAUACCGAGGAUAUUCAUAUACAUGAGGAUCACCCAUGUUUAUAUAGGCCAAAAGGCCUUGGGAGAAGGCGGAAUGCUAC [Xeonanis - 20 Mod10] (Eterna round: R96, puzzle: Same State NG 2)"
  assayed.system: "MS2 coat protein"
  apparent KD of MS2 coat protein: "13 nM"
- ordered.residues: "GUACAGAUCACAGGAUAUCACGUCGAAUAGACGUGAGAAGGGUGAUCACACAUGAAUAUUAAUACAUGAGGAUCACCCAUGUAC [SSNG1/16-A1] (Eterna round: R96, puzzle: Same State NG 1)"
  assayed.system: "MS2 coat protein"
  apparent KD of MS2 coat protein: "20.4 nM"
- ordered.residues: "GCAUGGUUACAUGCUAUACAUGAGGAUCACCCAUGUGAUGGGAAGGAUAUGUCCUCAAUUAGUGGACAGAAGGUCCAAACAUUU [Fiskers NG3ss - 1] (Eterna round: R96, puzzle: Same State NG 3)"
  assayed.system: "MS2 coat protein"
  apparent KD of MS2 coat protein: "939 nM"
- ordered.residues: "GGUAUUAACACAGGAUAUGCUUACGAAACGUAAGCAGAAGGGUGGACAUGAGGAUCACCCAUGUUUGUACCAGGGCGUGAGCCC [JL SSNG1 1.71] (Eterna round: R96, puzzle: Same State NG 1)"
  assayed.system: "MS2 coat protein"
  apparent KD of MS2 coat protein: "652 nM"
- ordered.residues: "UCGGGCGUACUUGCUGACAUGAGGAUCACCCAUGUAAAUGGGAAGGAUAUGGUUCCGUUUCGGUUCCAGAAGGUCCUGGGUGCU [salish99_SSNG3_r04_311] (Eterna round: R96, puzzle: Same State NG 3)"
  assayed.system: "MS2 coat protein"
  apparent KD of MS2 coat protein: "1180 nM"
